- Method Description: Plasma concentration in guinea pig at 0.1 mg/kg, sc after 4 hrs
- Type: ADME, organism-based, Cavia porcellus
- Parameters: dose 0.1 mg/kg, route subcutaneous
Measured Parameter: concentration at 4 h (nM)
Respond with the bare value in nM.

Recorded concentration at 4 h of CC(C)(C)NC(=O)c1ccc(Oc2cc(F)c(CC(=O)O)cc2Cl)c(NS(=O)(=O)c2ccc(C3CC3)cc2Cl)c1 [VIDUPIPRANT] , please. 32

---

Parameter: pIC50. Scope: all listed entries.
- Target Entity: Prostaglandin D2 receptor (Homo sapiens, UniProt Q13258)
- Sequence (Q13258 whole entry): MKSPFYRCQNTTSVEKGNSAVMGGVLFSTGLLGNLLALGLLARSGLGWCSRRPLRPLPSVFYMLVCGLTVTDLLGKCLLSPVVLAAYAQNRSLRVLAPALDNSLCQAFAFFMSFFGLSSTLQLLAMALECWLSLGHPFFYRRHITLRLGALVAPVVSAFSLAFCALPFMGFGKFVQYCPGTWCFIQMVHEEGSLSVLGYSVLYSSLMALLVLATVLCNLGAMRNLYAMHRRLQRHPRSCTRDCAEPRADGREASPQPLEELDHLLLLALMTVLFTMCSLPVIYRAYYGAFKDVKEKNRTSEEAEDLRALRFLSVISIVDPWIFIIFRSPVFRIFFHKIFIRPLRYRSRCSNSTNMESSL
- Method Description: Displacement of [3H]-PGD2 from human Prostanoid DP receptor expressed in human HEK293 cells by scintillation counter in presence of 50% human plasma
- Type: cell-based
Reminder that pIC50 is minus the log10 of a molar concentration.

>>> obs_value("CCCCNC(=O)c1ccc(Oc2ccc(CC(=O)O)cc2Cl)c(NS(=O)(=O)c2ccc(Cl)cc2Cl)c1")
5.88
>>> obs_value("CCCCNC(=O)c1ccc(Oc2ccc(CC(=O)O)cc2OC)c(NS(=O)(=O)c2cc(Cl)ccc2Cl)c1")
5.44
>>> obs_value("CCCCNC(=O)c1ccc(Oc2ccc(CC(=O)O)cc2F)c(NS(=O)(=O)c2ccc(Cl)cc2Cl)c1")
6.36

# ---- query compound ----
Need pIC50, item O=C(O)Cc1ccc(Oc2ccc(C(=O)NC3CC3)cc2NS(=O)(=O)c2ccc(Cl)cc2Cl)c(Cl)c1 6.66

---

- Method Description: Volume of distribution at steady state in rat
- Format: ADME, organism-based
- Settings: in vivo, read-out: Vdss
Measured Parameter: Vd

Data request, read-out Vd, for CC(C)(C)NC(=O)c1ccc(Oc2cc(F)c(CC(=O)O)cc2Cl)c(NS(=O)(=O)c2ccc(C3CC3)cc2Cl)c1 0.71 L/kg

---

- Method Description: Clearance in rat at 0.5 mg/kg, iv
- Type: ADME, organism-based
- Parameters: dose 0.5 mg/kg, route intravenous
- Settings: in vivo
Measured Parameter: clearance (mL/min/kg)
Kindly answer with a numeric value in mL/min/kg, unit omitted.

Given the compound CC(C)(C)NC(=O)c1ccc(Oc2cc(F)c(CC(=O)O)cc2Cl)c(NS(=O)(=O)c2ccc(C3CC3)cc2Cl)c1 [VIDUPIPRANT] , what is its reported clearance? 3.17

---

- Method Description: Mean residence time in rat
- Format: ADME, organism-based
- Settings: in vivo
Measured Parameter: MRT
Number first, unit second.

Would you kindly share the measured MRT for CC(C)(C)NC(=O)c1ccc(Oc2cc(F)c(CC(=O)O)cc2Cl)c(NS(=O)(=O)c2ccc(C3CC3)cc2Cl)c1 ? 3.9 h

---

- Target Entity: Prostaglandin D2 receptor (Homo sapiens, UniProt Q13258)
- Method Description: Displacement of [3H]-PGD2 from human Prostanoid DP receptor expressed in human HEK293 cells by scintillation counter in presence of 0.5% bovine serum albumin
- Assay type: cell-based
Examples of compounds with documented pIC50 follow.
Conceptually, pIC50 converts a concentration in mol/L into minus its log10.

Please review the following examples before continuing.
>>> obs_value("CCCCNC(=O)c1ccc(Oc2ccc(CC(=O)O)cc2OC)c(NS(=O)(=O)c2cc(Cl)cc(Cl)c2)c1")
6.03
>>> obs_value("O=C(O)Cc1ccc(Oc2ccc(C(=O)NC3CC3)cc2NS(=O)(=O)c2ccc(Cl)cc2Cl)c(Cl)c1")
7.85
>>> obs_value("CCCCNC(=O)c1ccc(Oc2ccc(CC(=O)O)cc2C)c(NS(=O)(=O)c2ccc(Cl)cc2Cl)c1")
8.22

// lookup pIC50 for CCCCNC(=O)c1ccc(Oc2ccc(CC(=O)O)cc2Cl)c(NS(=O)(=O)c2ccc(Cl)cc2Cl)c1 8.10

State the recorded pIC50 for this entry: CCCCNC(=O)c1ccc(Oc2ccc(CC(=O)O)cc2OC)c(NS(=O)(=O)c2ccc(Cl)c(Cl)c2)c1 7.68

pIC50 lookup needed for CCCCNC(=O)c1ccc(Oc2cc(F)c(CC(=O)O)cc2F)c(NS(=O)(=O)c2ccc(Cl)cc2Cl)c1 , thanks. 8.15

Any idea what its pIC50 is? The compound is O=C(O)Cc1cc(Cl)c(Oc2ccc(C(=O)NC3CCC3)cc2NS(=O)(=O)c2ccc(OC(F)(F)F)cc2Cl)cc1F 8.00

---

- Target Entity: Prostaglandin D2 receptor (Homo sapiens, UniProt Q13258)
- Method Description: Displacement of [3H]-PGD2 from human Prostanoid DP receptor expressed in human HEK293 cells by scintillation counter in presence of 50% human plasma
- Format: cell-based
Measured Parameter: IC50 (nM)
Give just the numeric value; nM need not be written.

// IC50 lookup, key: CCCCNC(=O)c1ccc(Oc2cc(F)c(CC(=O)O)cc2F)c(NS(=O)(=O)c2ccc(Cl)cc2Cl)c1 600

Returns the measured IC50 for the input compound. Input: CC(C)(C)NC(=O)c1ccc(Oc2ccc(CC(=O)O)cc2Cl)c(NS(=O)(=O)c2ccc(Cl)cc2Cl)c1 230

# query: IC50 of entry CCCCNC(=O)c1ccc(Oc2ccc(CC(=O)O)cc2OC)c(NS(=O)(=O)c2ccc(Cl)c(Cl)c2)c1 120

Request the reported IC50 associated with CCCCNC(=O)c1ccc(Oc2ccc(CC(=O)O)cc2OC)c(NS(=O)(=O)c2ccc(C(F)(F)F)cc2Cl)c1 190

---

- Target Entity: Prostaglandin D2 receptor 2 (Homo sapiens)
- Method Description: Displacement of [3H]-PGD2 from human CRTH2 receptor expressed in human HEK293 cells by scintillation counter in presence of 0.5% bovine serum albumin
- Assay type: cell-based
pIC50: −log10 of the molar value.
Threshold check on pIC50: at or above 8 gives met, strictly below gives not met.

Answered cases to consult:
>>> category("O=C(O)Cc1cc(F)c(Oc2ccc(C(=O)NC3CCC3)cc2NS(=O)(=O)c2ccc(OC(F)(F)F)cc2Cl)cc1F")
"not met"
>>> category("O=C(O)Cc1ccc(Oc2ccc(C(=O)NC3CCC3)cc2NS(=O)(=O)c2ccc(Cl)cc2Cl)c(Cl)c1")
"met"
>>> category("CCCCNC(=O)c1ccc(Oc2ccc(CC(=O)O)cc2C)c(NS(=O)(=O)c2ccc(Cl)cc2Cl)c1")
"met"

Okay, now this molecule:
I'd appreciate it if you could say whether COc1cc(CC(=O)O)ccc1Oc1ccc(C(=O)NC2CCC2)cc1NS(=O)(=O)c1ccc(C(F)(F)F)cc1Cl has pIC50 at least equal to 8. met

---

- Method Description: Oral bioavailability in rat at 2 mg/kg
- Format: ADME, organism-based
- Settings: in vivo
Measured Parameter: bioavailability (%)
Respond with the bare value in %.

Give the measured bioavailability of CC(C)(C)NC(=O)c1ccc(Oc2cc(F)c(CC(=O)O)cc2Cl)c(NS(=O)(=O)c2ccc(C3CC3)cc2Cl)c1 [VIDUPIPRANT] . 87

---

- Method Description: Plasma concentration in guinea pig at 10 mg/kg, sc after 4 hrs
- Format: ADME, organism-based, Cavia porcellus
- Design: dose 10 mg/kg, route subcutaneous
Recorded concentration at 4 h values for a group of molecules are listed next.
Use nM as the unit, but write only the number.

>>> obs_value("CCCCNC(=O)c1ccc(Oc2ccc(CC(=O)O)cc2OC)c(NS(=O)(=O)c2ccc(Cl)cc2Cl)c1")
939

State the recorded concentration at 4 h for this entry: CC(C)(C)NC(=O)c1ccc(Oc2cc(F)c(CC(=O)O)cc2Cl)c(NS(=O)(=O)c2ccc(C3CC3)cc2Cl)c1 [VIDUPIPRANT] 1400

---

- Target Entity: Prostaglandin D2 receptor 2 (Homo sapiens, UniProt Q9Y5Y4)
- Sequence (Q9Y5Y4 whole entry): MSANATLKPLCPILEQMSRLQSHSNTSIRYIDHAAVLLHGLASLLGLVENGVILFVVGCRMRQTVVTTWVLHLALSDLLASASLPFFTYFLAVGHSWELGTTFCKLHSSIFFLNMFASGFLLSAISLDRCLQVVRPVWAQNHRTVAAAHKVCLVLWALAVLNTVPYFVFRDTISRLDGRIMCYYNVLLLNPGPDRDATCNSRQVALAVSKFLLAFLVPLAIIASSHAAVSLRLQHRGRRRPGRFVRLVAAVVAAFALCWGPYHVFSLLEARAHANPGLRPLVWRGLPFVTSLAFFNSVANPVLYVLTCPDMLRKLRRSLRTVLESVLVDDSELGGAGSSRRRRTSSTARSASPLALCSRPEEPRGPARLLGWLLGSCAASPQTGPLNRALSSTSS
- Method Description: Displacement of [3H]-PGD2 from human CRTH2 receptor expressed in human HEK293 cells by scintillation counter in presence of 50% human plasma
- Assay type: cell-based
Measured Parameter: pIC50
A value of pIC50 is the negative decimal logarithm of a concentration given in moles per litre.

>>> obs_value("CC(C)(C)NC(=O)c1ccc(Oc2ccc(CC(=O)O)cc2Cl)c(NS(=O)(=O)c2ccc(Cl)cc2Cl)c1")
7.92

// pIC50 lookup, key: O=C(O)Cc1ccc(Oc2ccc(C(=O)NC3CCC3)cc2NS(=O)(=O)c2ccc(Cl)cc2)c(Cl)c1 7.92

Need pIC50 of COc1cc(CC(=O)O)ccc1Oc1ccc(C(=O)NC2CCC2)cc1NS(=O)(=O)c1ccc(C(F)(F)F)cc1Cl , thanks. 7.89

---

- Method Description: Plasma concentration in guinea pig at 3 mg/kg, sc after 4 hrs
- Format: ADME, organism-based, Cavia porcellus
- Design: dose 3 mg/kg, route subcutaneous
Measured Parameter: concentration at 4 h (nM)
Number in nM, nothing else.

>>> obs_value("CCCCNC(=O)c1ccc(Oc2ccc(CC(=O)O)cc2OC)c(NS(=O)(=O)c2ccc(Cl)cc2Cl)c1")
688

Now turn to the next molecule.
Looking for the measured concentration at 4 h of CC(C)(C)NC(=O)c1ccc(Oc2cc(F)c(CC(=O)O)cc2Cl)c(NS(=O)(=O)c2ccc(C3CC3)cc2Cl)c1 , can you help? 222
